Data credit: PubChem BioAssay (NCI)

Test system: HCT-15 colon
Assay: NCI tumour cell line growth inhibition, 48 h
Recorded TGI values for a group of molecules are listed next.

[[record]]
molecule = "COc1ccc([C@@H]2[C@@H](O)C(=O)N2c2cc(OC)c(OC)c(OC)c2)cc1F"
assay_result = "> 100 µM"

[[record]]
molecule = "C[C@]12CC[C@H]3[C@@H](CC=C4C[C@@H](O)CC[C@@]43C)[C@@H]1CC[C@@H]2[C@](C)(O)CCc1cccnc1"
assay_result = "> 100 µM"

[[record]]
molecule = "CC(=O)/C(N=Nc1ccc2oc(=O)ccc2c1)=C(\\C)O"
assay_result = "13.7 µM"


We now examine a further molecule.
q: Dear colleague, I am looking for the recorded TGI of the following molecule: CCCC(=O)NC(c1cccnc1)c1ccc2c(C)ccnc2c1O (centres undefined)
a: > 100 µM

----------
Test system: A498 renal
Assay: NCI tumour cell line growth inhibition, 48 h
Test readout: TGI

Example results:
[[record]]
smiles_structure = "CC1=C2C(=C[C@@](C)(COC(=O)c3ccc(S(=O)(=O)F)cc3)[C@@H]2OC(=O)c2ccc(S(=O)(=O)F)cc2)C(=O)[C@](C)(O)C12CC2"
assay_result = "4.29 µM"

[[record]]
smiles_structure = "COc1cc(/C=C/C(=O)c2ccc(C)cc2)ccc1Oc1nc(NCCO)nc(N2CCOCC2)n1"
assay_result = "> 100 µM"

[[record]]
smiles_structure = "CNC(=O)c1cc(N2CCc3cc(NC(=O)Nc4ccc(N5CCN(C)CC5)c(C(F)(F)F)c4)ccc32)ccn1"
assay_result = "> 25 µM"


Let us examine a further case.
q: Need TGI of CC1=C(C)C(=O)C(Nc2cccc(C(F)(F)F)c2)=C(Cl)C1=O , thanks.
a: 45.2 µM

----------
Tested on: SNB-75 CNS
Assay: NCI tumour cell line growth inhibition, 48 h
Test readout: TGI (µM)
Quick note: give the figure in µM, leave out the unit.

[[record]]
smiles_structure = "CC(=O)/C(N=Nc1ccc2oc(=O)ccc2c1)=C(\\C)O"
test_readout = "TGI"
assay_result = 18.6

[[record]]
smiles_structure = "CC1=C(C)C(=O)C(Nc2cccc(C(F)(F)F)c2)=C(Cl)C1=O"
test_readout = "TGI"
assay_result = 13.6


Next compound, TGI to be filled in.
q: Please report the recorded TGI for CNC(=O)c1cc(N2CCc3cc(NC(=O)Nc4ccc(N5CCN(C)CC5)c(C(F)(F)F)c4)ccc32)ccn1 .
a: 5.75

----------
Reported TGI values for the following molecules.
Test system: MDA-MB-231 breast
Assay: NCI tumour cell line growth inhibition, 48 h

For orientation, consider the following solved cases.
[[record]]
smiles_structure = "COc1ccc([C@@H]2[C@@H](O)C(=O)N2c2cc(OC)c(OC)c(OC)c2)cc1F"
assay_result = "> 100 µM"

[[record]]
smiles_structure = "CNC(=O)c1cc(N2CCc3cc(NC(=O)Nc4ccc(N5CCN(C)CC5)c(C(F)(F)F)c4)ccc32)ccn1"
assay_result = "7.83 µM"

[[record]]
smiles_structure = "COc1cc(/C=C/C(=O)c2ccc(C)cc2)ccc1Oc1nc(NCCO)nc(N2CCOCC2)n1"
assay_result = "> 100 µM"

[[record]]
smiles_structure = "C[C@]12CC[C@H]3[C@@H](CC=C4C[C@@H](O)CC[C@@]43C)[C@@H]1CC[C@@H]2[C@](C)(O)CCc1cccnc1"
assay_result = "> 100 µM"


q: Bench note: what TGI did CC(=O)/C(N=Nc1ccc2oc(=O)ccc2c1)=C(\C)O show?
a: 18.1 µM
